# Run parameters: 303.15 K; 101 kPa
± gives the uncertainty stated by the source.
Measurement label: viscosity

Consider the worked cases shown below.
Please fill in: viscosity reported for `CN(C)CCCN` = 0.941 ± 0.011 mPa·s

The reported viscosity of the compound `CCCC(=O)[O-].[NH3+]CCO` was 1434 ± 150 mPa·s

Lab note: measured viscosity of `CCC(=O)O.CCC(=O)[O-].CC[NH+](CC)CCO` was 50.6 ± 2.6 mPa·s

Now consider a different compound.
# compound `CCCCCCCC/C=C\CCCCCCCC(=O)OCC` ; its viscosity = 4.986 ± 0.053 mPa·s

----------
# Run parameters: 298.15 K; 101 kPa
Reported values of viscosity for individual entries
Your answer is read as mPa·s, so omit the unit and give the number.

Use the examples below as a reference point.
In plain terms, `CCC(=O)O.CCC(=O)[O-].CC[NH+](CC)CCO` has a documented viscosity of 66.16

The compound identified as `CCOP(OCC)OCC` registered its viscosity at 0.698

The compound listed as `CCCCCCCC/C=C\CCCCCCCC(=O)OCC` shows viscosity equal to 5.653

Consider `CC(C)COCCO` . Its measured viscosity is 3.33

Others:
The compound identified as `CCCC(=O)[O-].[NH3+]CCO` registered its viscosity at 2071

----------
Overview of reported viscosity across a group of compounds:
# Run parameters: 293.15 K; 101 kPa
± gives the uncertainty stated by the source.

Consider the reported viscosity for these compounds:
Lab note: measured viscosity of `CCCC(=O)[O-].[NH3+]CCO` was 3077 ± 340 mPa·s

Reported viscosity ( `CC(=O)OCCC(C)C` ) = 0.86 ± 0.008 mPa·s

viscosity measured on `CCCCCCCC/C=C\CCCCCCCC(=O)OCC` = 6.413 ± 0.068 mPa·s

Consider the record given below.
Lab note: measured viscosity of `CCC(=O)O.CCC(=O)[O-].CC[NH+](CC)CCO` was 88.32 ± 4.5 mPa·s

----------
Parameter viscosity: see the listing below.
# Run parameters: 293.15 K; 100 kPa
Respond numerically; units are mPa·s and should not be typed.

Observe how each entry below is paired with its result.
Short answer for `CCOP(=O)([O-])OCC.CC[N+]1(C)CCCC1` : viscosity was 440.8

Record `CC(=O)O.OCCNCCO` , field viscosity: 5750

The value of viscosity measured for the compound `CN(C)CCCN` turned out to be 1.079

Now for a further compound.
Documented viscosity of `CCCCCCCC/C=C\CCCCCCCC(=O)OCC` : 6.414

----------
# Run parameters: 303.15 K; 100 kPa
Reported viscosity by item:
Could you give me the number in mPa·s? Just the number is fine.

Sample records with viscosity:
Lab note: measured viscosity of `CCOP(=O)([O-])OCC.CC[N+]1(C)CCCC1` was 220

Measured viscosity, `CN(C)CCCN` : 0.8997

Please fill in: viscosity reported for `CC(=O)O.OCCNCCO` = 2248

Next item in the queue.
For this compound ( `CCCCCCCC/C=C\CCCCCCCC(=O)OCC` ), measured viscosity is 4.986

----------
# Assay summary: xn = mol fraction of the nth substance listed
# Run parameters: 298.15 K; 101 kPa; x1 = 0.8
Measurement label: viscosity (mPa·s)
Numbers only; they are read as mPa·s.

Before answering, review these 3 worked examples.
The molecule listed as CCCOCC(C)OCC(C)O (centres undefined) + CCCCCCCO has a reported viscosity of 4.207

What the record says about CCOP(OCC)OCC + c1ccncc1 : viscosity is 0.707

Noted for CCOP(OCC)OCC + N#Cc1ccccc1 : its viscosity reads 0.781

Let us examine a further case.
Quick note, viscosity for CCOP(OCC)OCC + CC#N landed at 0.642

----------
# Run parameters: 323.15 K; 100 kPa
± gives the uncertainty stated by the source.
Entries annotated with measured viscosity

Check out these entries, answers already filled in.
viscosity in this record for `CN(C)CCCN` : 0.6553 ± 0.033 mPa·s

Quick note, viscosity for `CCOP(=O)([O-])OCC.CC[N+]1(C)CCCC1` landed at 72.98 ± 4.8 mPa·s

Looking up `CCCCCCCC/C=C\CCCCCCCC(=O)OCC` , I found its viscosity recorded as 3.214 ± 0.087 mPa·s

Okay, next one:
viscosity in this record for `CC(=O)O.OCCNCCO` : 491.7 ± 100 mPa·s

Just for reference, the CheMixHub viscosity set is where these values come from.
